Cited source for all entries: patent US20190233493A1

Molecular target: T1, RXFP1 receptor (UniProt Q9HBX9 1-757, limits assumed)
T1 sequence (looked up): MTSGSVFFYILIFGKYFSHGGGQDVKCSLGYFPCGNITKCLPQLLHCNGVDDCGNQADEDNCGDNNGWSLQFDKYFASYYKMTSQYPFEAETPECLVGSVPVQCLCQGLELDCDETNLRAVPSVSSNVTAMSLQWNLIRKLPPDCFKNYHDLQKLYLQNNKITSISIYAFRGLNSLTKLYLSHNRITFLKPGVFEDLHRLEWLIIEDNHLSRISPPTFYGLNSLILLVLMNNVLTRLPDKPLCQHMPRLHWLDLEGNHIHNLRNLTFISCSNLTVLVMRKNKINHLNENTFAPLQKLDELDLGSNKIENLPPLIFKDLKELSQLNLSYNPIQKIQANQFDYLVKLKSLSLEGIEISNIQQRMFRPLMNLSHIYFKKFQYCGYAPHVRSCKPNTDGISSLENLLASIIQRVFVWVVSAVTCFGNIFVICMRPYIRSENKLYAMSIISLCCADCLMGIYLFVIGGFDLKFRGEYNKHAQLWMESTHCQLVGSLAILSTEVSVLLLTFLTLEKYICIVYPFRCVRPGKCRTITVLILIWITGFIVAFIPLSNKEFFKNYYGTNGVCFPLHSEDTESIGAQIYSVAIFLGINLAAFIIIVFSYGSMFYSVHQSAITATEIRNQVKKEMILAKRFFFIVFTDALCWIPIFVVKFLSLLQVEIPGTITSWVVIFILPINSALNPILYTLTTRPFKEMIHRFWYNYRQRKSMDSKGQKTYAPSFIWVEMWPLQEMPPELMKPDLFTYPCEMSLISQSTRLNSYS
Test: cell-based or functional assay
*1 amine or outer side, *2 acyl side, *3 side chain or, on linkers, in order; H or OH if unused. Primed or numbered codes have the meaning given here. Side-chain parts run from the residue outwards. [ ]: non-standard residue; d: D form. The star is where a group is joined. PEG2DGA = 2-[2-[3-[2-[2-(3-aminopropoxy)ethoxy]ethoxy]propylamino-2-oxo-ethoxy]acetyl; Docosanoyl = CCCCCCCCCCCCCCCCCCCCCC(=O)*; γGlu = O=C(O)[C@H](CCC(=O)[*:2])N[*:1]; Stearoyl = CCCCCCCCCCCCCCCCCC(=O)*; Palmitoyl = CCCCCCCCCCCCCCCC(=O)*; αMeK = C[C@](N)(CCCCN)C(=O)O; Nle = CCCC[C@H](N)C(=O)O; PEG2′ = PEG2 spacer unit; PEG2″ = not defined here; Aib = CC(C)(N)C(=O)O
I'd appreciate it if you could supply EMax, OVCAR 5 cells (cAMP) values for the items below.
Numbers only, in %.

| BINDER | EMax, OVCAR 5 cells (cAMP) (%) |
| --- | --- |
| Ac-LEGREKVRAK(Ac)I[Aib][Aib]EG[Nle]STWS[Aib]RKK(Ac)K([PEG2DGA-γGlu-γGlu-γGlu-Stearoyl])-NH2 [peptide of SEQ ID NO: 94] | 90 |

Quick one: give me EMax, OVCAR 5 cells (cAMP) for each item below, same order please.
1. Ac-LEGREKVRAK(Ac)I[Aib][Aib]EG[Nle]STWS[Aib]RKK(Ac)K([PEG2′-PEG2′-PEG2′-γGlu-γGlu-γGlu-Docosanoyl])-NH2 [peptide of SEQ ID NO: 173]
2. Ac-LEGREKVRAQI[Aib][Aib]EGQSTWS[Aib]RKKK([PEG2″-PEG2″-γGlu-γGlu-γGlu-Stearoyl])-NH2 [peptide of SEQ ID NO: 70]
3. Ac-LEGREKVRAK(Ac)I[Aib][Aib]EGQSTFS[αMeK]RAK(Ac)K([PEG2′-PEG2′-PEG2′-PEG2′-γGlu-γGlu-γGlu-γGlu-Palmitoyl])-NH2 [peptide of SEQ ID NO: 191]

-- reply
1: 85; 2: 86; 3: 93
